Molecular target: Amino acid transporter (Rattus norvegicus)
Experiment: Inhibition of rat ASCT2 expressed in HEK293 cells assessed as inhibition of L-alanine/Na+ exchange by measuring reduction in SCN anion inward current at 1 mM in presence of NaCl and NaSCN by whole cell patch-clamp method
Type: cell-based
quantity_name: Imax (%)
Just the number please, in %, no unit attached.

1. O=C(O)C1C[C@@H](Cc2ccccc2Br)CN1 (single isomer, unassigned) = 55

Looking up `O=C(O)[C@@H]1C[C@@H](Cc2ccc(-c3ccccc3)cc2)CN1` , I see its Imax listed as 57

Looking up O=C(O)C1C[C@@H](Cc2ccccc2[N+](=O)[O-])CN1 (single isomer, unassigned) , I see its Imax listed as 61

Looking up O=C(O)C1C[C@@H](Cc2ccccc2C(F)(F)F)CN1 (single isomer, unassigned) , I see its Imax listed as 49

Looking up O=C(O)C1C[C@@H](Cc2ccc(F)cc2)CN1 (single isomer, unassigned) , I see its Imax listed as 57
